The origin of these recorded values is patent US11407768B2.

# target_of_assay: Recombinant AMPK α1/β1/γ1 complex (Homo sapiens (Human), UniProt Q13131+Q9Y478)
# Sequence (Q13131 whole entry): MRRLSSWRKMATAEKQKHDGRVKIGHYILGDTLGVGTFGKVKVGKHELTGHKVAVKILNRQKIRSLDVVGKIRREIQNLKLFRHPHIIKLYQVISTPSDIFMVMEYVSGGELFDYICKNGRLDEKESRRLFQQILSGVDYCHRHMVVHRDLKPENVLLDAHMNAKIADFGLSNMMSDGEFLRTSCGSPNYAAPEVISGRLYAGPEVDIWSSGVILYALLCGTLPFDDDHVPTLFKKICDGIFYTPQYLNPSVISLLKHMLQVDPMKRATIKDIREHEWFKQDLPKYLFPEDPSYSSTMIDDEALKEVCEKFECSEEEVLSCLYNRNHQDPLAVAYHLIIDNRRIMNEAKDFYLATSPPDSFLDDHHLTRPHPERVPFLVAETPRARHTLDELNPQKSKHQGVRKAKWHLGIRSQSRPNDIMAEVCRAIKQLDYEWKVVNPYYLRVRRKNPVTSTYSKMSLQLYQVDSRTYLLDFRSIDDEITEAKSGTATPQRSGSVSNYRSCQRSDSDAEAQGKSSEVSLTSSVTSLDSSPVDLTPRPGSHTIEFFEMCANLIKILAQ
# Sequence (Q9Y478 whole entry): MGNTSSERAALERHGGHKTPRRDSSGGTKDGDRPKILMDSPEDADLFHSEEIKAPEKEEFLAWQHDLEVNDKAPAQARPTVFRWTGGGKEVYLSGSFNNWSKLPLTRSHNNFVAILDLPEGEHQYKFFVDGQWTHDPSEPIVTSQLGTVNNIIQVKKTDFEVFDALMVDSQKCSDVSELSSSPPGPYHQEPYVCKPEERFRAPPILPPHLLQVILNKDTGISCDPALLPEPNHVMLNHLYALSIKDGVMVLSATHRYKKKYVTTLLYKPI
# Sequence (P54619 whole entry partner): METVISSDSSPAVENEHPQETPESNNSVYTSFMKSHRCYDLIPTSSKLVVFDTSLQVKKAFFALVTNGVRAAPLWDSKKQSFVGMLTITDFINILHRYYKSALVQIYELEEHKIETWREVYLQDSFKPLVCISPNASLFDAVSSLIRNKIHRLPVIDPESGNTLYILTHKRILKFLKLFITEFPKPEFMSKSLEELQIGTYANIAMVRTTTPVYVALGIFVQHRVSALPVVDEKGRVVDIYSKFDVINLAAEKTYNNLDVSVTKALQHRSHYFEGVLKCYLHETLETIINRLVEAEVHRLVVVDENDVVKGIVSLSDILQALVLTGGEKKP
# measurement_notes: In vitro pAMPK1 kinase activation assay (ADP-Glo, SAMS peptide)
# assay_conditions: AMPK α1/β1/γ1 pre-activated with CAMKK2; 12-point curve; 15 min compound incubation
Threshold check on EC50: strictly below 0.6 nM is fulfilled; on or above 0.6 nM is not fulfilled.

Q: Here's an entry: O=C(NCCOCCO)c1ccc(-c2ccc(-c3cc4nc(O[C@@H]5CO[C@H]6[C@@H]5OC[C@H]6O)[nH]c4cc3Cl)cc2)cc1 . Is its EC50 below 0.6 nM?
Result: not fulfilled

Q: Here's an entry: O=S(=O)(NC[C@H](O)[C@@H](O)[C@H](O)[C@H](O)CO)c1ccc(-c2ccc(-c3cc4nc(O[C@@H]5CO[C@H]6[C@@H]5OC[C@H]6O)[nH]c4cc3Cl)cc2)cc1 . Is its EC50 below 0.6 nM?
Result: not fulfilled

Q: Here's an entry: C[N+](C)(C)CCNC(=O)c1ccc(-c2ccc(-c3cc4nc(O[C@@H]5CO[C@H]6[C@@H]5OC[C@H]6O)[nH]c4cc3Cl)cc2)cc1 . Is its EC50 below 0.6 nM?
Result: fulfilled

Q: Here's an entry: OC[C@@H](O)[C@@H](O)[C@H](O)[C@@H](O)CNCc1ccc(-c2ccc(-c3nc4nc(O[C@@H]5CO[C@H]6[C@@H]5OC[C@H]6O)[nH]c4cc3Cl)cc2)cc1 . Is its EC50 below 0.6 nM?
Result: fulfilled

Q: Here's an entry: OCC(CO)(CO)NCc1ccc(-c2ccc(-c3cc4nc(O[C@@H]5CO[C@H]6[C@@H]5OC[C@H]6O)[nH]c4cc3Cl)cc2)cc1 . Is its EC50 below 0.6 nM?
Result: not fulfilled

* * *

Entries annotated with measured Vd
# measurement_notes: Pharmacokinetics (oral bioavailability) in C57BL/6 mice
# assay_conditions: mouse, in vivo, following IV administration, 1 mg/kg, read-out: volume of distribution
# Method: Selected compounds were tested for pharmacokinetics in C57BL/6 mice. Compounds 1, 4, 31, 32, 40, 55, 57 and 60 were dosed IV at 1 mg/kg as a formulation of 0.2 mg/mL in 5% DMSO+30% PEG400+65% water and were dosed PO at 30 mg/kg as a formulation of 3 mg/mL in 0.25% MC+5% Tween 80+0.02% SDS. Compound 2 was dosed IV at 1 mg/kg as a formulation of 0.2 mg/mL in 5% ethanol +95% saline and was dosed PO at 30 mg/kg as a formulation of 3 mg/mL in 0.25% MC+5% Tween 80+0.02% SDS.
Structures can show the parent of a compound that is named as a salt.

Q: What does the data say about its Vd? Entry: O=C(NC[C@H](O)[C@@H](O)[C@H](O)[C@H](O)CO)c1ccc(-c2ccc(-c3nc4nc(O[C@@H]5CO[C@H]6[C@@H]5OC[C@H]6O)[nH]c4cc3Cl)cc2)cc1
Result: < 5 L/kg

Q: What does the data say about its Vd? Entry: O=C(NCC[N+]12CCN(CC1)CC2)c1ccc(-c2ccc(-c3cc4nc(O[C@@H]5CO[C@H]6[C@@H]5OC[C@H]6O)[nH]c4cc3Cl)cc2)cc1 [Compound 32, formate]
Result: < 1 L/kg

Q: What does the data say about its Vd? Entry: OC[C@@H](O)[C@@H](O)[C@H](O)[C@@H](O)CNCc1ccc(-c2ccc(-c3nc4nc(O[C@@H]5CO[C@H]6[C@@H]5OC[C@H]6O)[nH]c4cc3Cl)cc2)cc1
Result: < 1 L/kg

* * *

# Tested on: Chemotherapy-induced Intestinal Injury Model
# measurement_notes: Diarrhea in mouse chemotherapy-induced (5FU) intestinal injury model
# Format: in vivo, BALB/c mice
# assay_conditions: 30 mpk BID oral; 5FU 400 mg/kg IP; score 0-3
metric: Diarrhea Score Day 6
Answer with a bare number; do not write a unit.

Known Diarrhea Score Day 6 results, listed for orientation:
[
  {
    "input_smiles": "OCCOCCNCc1ccc(-c2ccc(-c3cc4nc(O[C@@H]5CO[C@H]6[C@@H]5OC[C@H]6O)[nH]c4cc3Cl)cc2)cc1",
    "metric": "Diarrhea Score Day 6",
    "test_value": 0.38
  },
  {
    "input_smiles": "O=C(NCCOCCO)c1ccc(-c2ccc(-c3cc4nc(O[C@@H]5CO[C@H]6[C@@H]5OC[C@H]6O)[nH]c4cc3Cl)cc2)cc1",
    "metric": "Diarrhea Score Day 6",
    "test_value": 0.63
  },
  {
    "input_smiles": "OCCN1CCN(Cc2ccc(-c3ccc(-c4cc5nc(O[C@@H]6CO[C@H]7[C@@H]6OC[C@H]7O)[nH]c5cc4Cl)cc3)cc2)CC1",
    "metric": "Diarrhea Score Day 6",
    "test_value": 0.25
  },
  {
    "input_smiles": "OCC1(CO)CCN(Cc2ccc(-c3ccc(-c4cc5nc(O[C@@H]6CO[C@H]7[C@@H]6OC[C@H]7O)[nH]c5cc4Cl)cc3)cc2)CC1",
    "metric": "Diarrhea Score Day 6",
    "test_value": 0.38
  }
]

We next turn to a different molecule, shown below.
Q: What does the data say about its Diarrhea Score Day 6? Entry: OCC(CO)NCc1ccc(-c2ccc(-c3cc4nc(O[C@@H]5CO[C@H]6[C@@H]5OC[C@H]6O)[nH]c4cc3Cl)cc2)cc1
Result: 0.75

* * *

# target_of_assay: Recombinant AMPK α1/β1/γ1 complex (Homo sapiens (Human), UniProt Q13131+Q9Y478)
# measurement_notes: In vitro pAMPK1 kinase activation assay (ADP-Glo, SAMS peptide)
# assay_conditions: AMPK α1/β1/γ1 pre-activated with CAMKK2; 12-point curve; 15 min compound incubation
Threshold check on EC50: strictly below 0.9 nM is criterion met; on or above 0.9 nM is criterion not met.

[
  {
    "compound": "OC[C@@H](O)[C@@H](O)[C@H](O)[C@@H](O)CNCc1ccc(-c2ccc(-c3cc4nc(O[C@@H]5CO[C@H]6[C@@H]5OC[C@H]6O)[nH]c4cc3Cl)cc2)cc1",
    "class": "criterion met"
  },
  {
    "compound": "OCC(CO)(CO)NCc1ccc(-c2ccc(-c3nc4nc(O[C@@H]5CO[C@H]6[C@@H]5OC[C@H]6O)[nH]c4cc3Cl)cc2)cc1",
    "class": "criterion met"
  },
  {
    "compound": "O[C@@H]1CO[C@H]2[C@@H]1OC[C@H]2Oc1nc2cc(-c3ccc(-c4ccc(CN5C[C@@H](O)[C@@H](O)C5)cc4)cc3)c(Cl)cc2[nH]1",
    "class": "criterion not met"
  },
  {
    "compound": "O=C(NCC(CS(=O)(=O)O)c1ccc(Cl)cc1)c1ccc(-c2ccc(-c3nc4nc(O[C@@H]5CO[C@H]6[C@@H]5OC[C@H]6O)[nH]c4cc3Cl)cc2)cc1 (some centres unmarked)",
    "class": "criterion not met"
  }
]

Next:
Q: Here's an entry: OCCN1CCN(Cc2ccc(-c3ccc(-c4cc5nc(O[C@@H]6CO[C@H]7[C@@H]6OC[C@H]7O)[nH]c5cc4Cl)cc3)cc2)CC1 . Is its EC50 below 0.9 nM?
Result: criterion not met

* * *

# measurement_notes: in vitro
# assay_conditions: human, Caco-2, pH 7.4, Efflux Ratio
metric: efflux ratio at 2 h, 2 μM

[
  {
    "compound": "C[C@H]1O[C@@H](O[C@H]2[C@@H](O)C[C@H](O[C@H]3[C@@H](O)C[C@H](O[C@H]4CC[C@@]5(C)[C@H](CC[C@@H]6[C@@H]5C[C@@H](O)[C@]5(C)[C@@H](C7=CC(=O)OC7)CC[C@]65O)C4)O[C@@H]3C)O[C@@H]2C)C[C@H](O)[C@@H]1O [Digoxin, reference compound]",
    "efflux ratio at 2 h, 2 μM": "> 438"
  },
  {
    "compound": "OC[C@@H](O)[C@@H](O)[C@H](O)[C@@H](O)CNCc1ccc(-c2ccc(-c3nc4nc(O[C@@H]5CO[C@H]6[C@@H]5OC[C@H]6O)[nH]c4cc3Cl)cc2)cc1 [Compound 4]",
    "efflux ratio at 2 h, 2 μM": "> 1.48"
  }
]

Q: What does the data say about its efflux ratio at 2 h, 2 μM? Entry: O=C(NC[C@H](O)[C@@H](O)[C@H](O)[C@H](O)CO)c1ccc(-c2ccc(-c3nc4nc(O[C@@H]5CO[C@H]6[C@@H]5OC[C@H]6O)[nH]c4cc3Cl)cc2)cc1 [Compound 1]
Result: > 2

* * *

Entries annotated with measured pEC50
# target_of_assay: Recombinant AMPK α1/β1/γ1 complex (Homo sapiens (Human), UniProt Q13131+Q9Y478)
# measurement_notes: In vitro pAMPK1 kinase activation assay (ADP-Glo, SAMS peptide)
# assay_conditions: AMPK α1/β1/γ1 pre-activated with CAMKK2; 12-point curve; 15 min compound incubation
In plain terms, pEC50 is the concentration in mol/L turned into minus its base-10 logarithm.

Known pEC50 results, listed for orientation:
[
  {
    "compound": "O=C(O)C(O)CNCc1ccc(-c2ccc(-c3nc4nc(O[C@@H]5CO[C@H]6[C@@H]5OC[C@H]6O)[nH]c4cc3Cl)cc2)cc1 (some centres unmarked) [Compound 22]",
    "pEC50": 9.20
  },
  {
    "compound": "O[C@@H]1CO[C@H]2[C@@H]1OC[C@H]2Oc1nc2cc(-c3ccc(-c4ccc(CN5C[C@H](O)[C@@H](O)C5)cc4)cc3)c(Cl)cc2[nH]1 [Compound 64]",
    "pEC50": 8.85
  },
  {
    "compound": "O=C(CCCNCc1ccc(-c2ccc(-c3cc4nc(O[C@@H]5CO[C@H]6[C@@H]5OC[C@H]6O)[nH]c4cc3Cl)cc2)cc1)NCCO [Compound 37]",
    "pEC50": 8.44
  },
  {
    "compound": "OCCOCC1CN(Cc2ccc(-c3ccc(-c4cc5nc(O[C@@H]6CO[C@H]7[C@@H]6OC[C@H]7O)[nH]c5cc4Cl)cc3)cc2)C1 [Compound 50]",
    "pEC50": 8.84
  }
]

We next turn to a different compound, shown below.
Q: What does the data say about its pEC50? Entry: NCC1CN(Cc2ccc(-c3ccc(-c4cc5nc(O[C@@H]6CO[C@H]7[C@@H]6OC[C@H]7O)[nH]c5cc4Cl)cc3)cc2)C1 [Compound 67]
Result: 9.03
